Please provide measured IC50 for the entries that follow.
EXPERIMENTAL_SYSTEM: TNKS2 (Homo sapiens, UniProt Q9H2K2)
Sequence (Q9H2K2 whole entry): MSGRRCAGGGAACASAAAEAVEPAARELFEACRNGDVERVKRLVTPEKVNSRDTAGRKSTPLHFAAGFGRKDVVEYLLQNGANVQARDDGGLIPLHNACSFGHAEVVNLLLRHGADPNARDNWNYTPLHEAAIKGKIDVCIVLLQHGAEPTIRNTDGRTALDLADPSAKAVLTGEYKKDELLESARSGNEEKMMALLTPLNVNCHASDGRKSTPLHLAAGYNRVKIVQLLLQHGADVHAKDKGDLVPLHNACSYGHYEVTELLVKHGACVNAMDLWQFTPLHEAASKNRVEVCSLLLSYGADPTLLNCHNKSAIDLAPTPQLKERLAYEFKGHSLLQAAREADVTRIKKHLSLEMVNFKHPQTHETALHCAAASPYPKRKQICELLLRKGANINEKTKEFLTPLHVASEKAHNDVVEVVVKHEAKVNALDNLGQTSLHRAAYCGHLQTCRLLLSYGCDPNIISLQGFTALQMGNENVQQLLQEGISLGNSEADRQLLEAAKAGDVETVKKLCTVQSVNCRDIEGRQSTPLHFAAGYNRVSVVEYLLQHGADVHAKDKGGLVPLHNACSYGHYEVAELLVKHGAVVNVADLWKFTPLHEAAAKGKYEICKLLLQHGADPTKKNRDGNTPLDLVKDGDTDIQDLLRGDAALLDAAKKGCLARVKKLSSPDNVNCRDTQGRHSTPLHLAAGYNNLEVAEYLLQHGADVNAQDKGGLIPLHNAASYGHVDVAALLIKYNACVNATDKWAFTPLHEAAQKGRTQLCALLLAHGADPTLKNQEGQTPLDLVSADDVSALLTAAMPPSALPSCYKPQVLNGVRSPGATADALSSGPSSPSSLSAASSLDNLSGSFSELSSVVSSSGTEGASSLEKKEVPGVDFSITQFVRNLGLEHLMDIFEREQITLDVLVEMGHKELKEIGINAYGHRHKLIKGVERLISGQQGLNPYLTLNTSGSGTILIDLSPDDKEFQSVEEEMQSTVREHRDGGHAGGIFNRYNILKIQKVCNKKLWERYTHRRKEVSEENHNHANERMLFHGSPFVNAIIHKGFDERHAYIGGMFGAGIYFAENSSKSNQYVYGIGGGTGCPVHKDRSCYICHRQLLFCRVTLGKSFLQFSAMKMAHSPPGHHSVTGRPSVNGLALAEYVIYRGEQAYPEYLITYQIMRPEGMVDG
PROTOCOL_DETAILS: Modified TNKS2 Assay 2 (auto-parsylation, [3H]-NAD+ SPA)
Assay type: biochemical
EXPERIMENTAL_CONDITIONS: 6 nM TNKS2, 96 well
Give bare numbers, in nM.

>  <MOLECULE>
CNC(=O)c1nc[nH]c1C(=O)Nc1ccc(NC(=O)c2ccc(OCCN3CCN(C)CC3)cc2Cl)cc1 [Example 28]

>  <VALUE_TYPE>
IC50

>  <RESULT_UNIT>
nM

>  <MEASURED>
180

$$$$
>  <MOLECULE>
CN(C)CCNC(=O)c1nc[nH]c1C(=O)Nc1ccc(NC(=O)c2ccccc2Cl)nc1 [Example 113]

>  <VALUE_TYPE>
IC50

>  <RESULT_UNIT>
nM

>  <MEASURED>
40

$$$$
>  <MOLECULE>
CN1CC2(C1)CN(C(=O)c1nc[nH]c1C(=O)Nc1ccc(NC(=O)c3ccc(F)cc3Cl)cc1)C2 [Example 46]

>  <VALUE_TYPE>
IC50

>  <RESULT_UNIT>
nM

>  <MEASURED>
1100

$$$$

Provide IC50 for all items below, preserving their order.
1. O=C(Nc1ccc(NC(=O)c2nc[nH]c2C(=O)NCCCN2CCOCC2)cc1)c1ccccc1Cl [Example 200]
2. CC(C)(CN1CCCCC1)NC(=O)c1[nH]cnc1C(=O)Nc1ccc(NC(=O)c2ccccc2Cl)cc1 [Example 171]
3. CCN(CC)CCCCNC(=O)c1nc[nH]c1C(=O)Nc1ccc(NC(=O)c2ccc(F)cc2Cl)cc1 [Example 393]
4. CNC(=O)c1nc[nH]c1C(=O)Nc1ccc(NC(=O)c2ccc(Cl)cc2Cl)cc1 [Example 9]
5. CNC(=O)c1nc[nH]c1C(=O)Nc1ccc(NC(=O)c2c(C)cccc2F)cc1 [Example 375]
6. CCNC(=O)c1nc[nH]c1C(=O)Nc1ccc(NC(=O)c2cnccc2Cl)cc1 [Example 263]
7. CN1CCN(C(C)(C)CNC(=O)c2[nH]cnc2C(=O)Nc2ccc(NC(=O)c3ccc(F)cc3Cl)cc2)CC1 [Example 187]

1. 580
2. 340
3. 750
4. 80
5. 1200
6. 500
7. 100
